The reported numbers originate from patent US20220002432A1.

- MEASURED_ON: T1, cynomolgus CD38 ECD (cynomolgus, UniProt Q5VAN0 44-301, biotinylated on the AviTag during preparation)
- T1 construct: also called Cyno-CD38; Avi-Cyno CD38 ECD
- TEST_METHOD_NOTES: SPR (Biacore 8K), antibody captured, antigen injected;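 further: antibodies held on a CM5 chip through anti-human IgG Fc, antigen in 3-fold serial dilutions, 1 min association then 10 min dissociation at 25 °C, 1:1 Langmuir global fit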
pKd: −log10 of the molar value.
QUANTITY_NAME: pKd

[[record]]
binder = "21G2 (antibody, human IgG1, kappa, V domains shown, Rabbit-human chimeric anti-CD38: rabbit VH and VL on human IgG1 and kappa constant regions) VH: QSVEESGGRLVTPGTPLTLTCTVSGFSLSNYGVSWVRQAPGKGLEWIGYILTSGGTYYANWAQGRFTISKTSTTVDLKITSPTTEDTATYFCGRPKDSDSSAFVSLWGPGTLVTVSS VL: DVVMTQTPASVSEPVGGTVTINCQASESIYSNLAWYQQKPGQPPKLLIYKASTLASGVSSRFKGSGSGTEFTLTISDLESADAATYYCQANHMIVIYGNGFGGGTEVVVKR"
quantity_name = "pKd"
result_value = 8.77

[[record]]
binder = "26D4 (antibody, human IgG1, kappa, V domains shown, Rabbit-human chimeric anti-CD38: rabbit VH and VL on human IgG1 and kappa constant regions) VH: QEQLEESGGDLVKPEGSLTLTCTASGFSFSNDAICWVRQAPGKGLEWIACIYAGSGNTYYASWAKGRFSISKTSSTTVTLQMTSLTVADTATYFCASADTIDYFNLWGPGTLVTVSS VL: AQVLTQTPSPVSAAVGGTVTINCQASQSVYNNNYLAWYQQKPGQPPKLLIYRASNLASGVPSRFSASGSGTQFTLTISEVQSDDAATYYCQAYYRDPTTAFGGGTEVVVKR"
quantity_name = "pKd"
result_value = 7.36

[[record]]
binder = "17E9 (antibody, human IgG1, kappa, V domains shown, Rabbit-human chimeric anti-CD38: rabbit VH and VL on human IgG1 and kappa constant regions) VH: QSVEESGGRLVTPGTPLTLTCTASGFSLSRYYVTWVRQAPGKGLEWIGIIYISGTTYYATWAKGRFTISKSATTVDLRIASPTTEDTATYFCAAAWPVGTYVLPLWGPGTLVTVSS VL: AAVLTQTPSPVSAAVGGTVTIKCQSSQSVVNANNLSWYQQKPGQPPKLLIYLASTLASGVPSRFSGSGSGTQFTLTISSVQSDDAATYYCLGVYDDDGDNAFGGGTEVVVKR"
quantity_name = "pKd"
result_value = 10.22

[[record]]
binder = "25E4 (antibody, human IgG1, kappa, V domains shown, Rabbit-human chimeric anti-CD38: rabbit VH and VL on human IgG1 and kappa constant regions) VH: QSLEESGGRLVTPGTPLTLTCTVSGIDLSIYTMAWVRQAPGKGLEYIGIISGYGTTYYATWAKGRFIVSKTSTTVDLKITSPTTEDTATYFCVRTTVQSTDLWGPGTLVTVSS VL: DIVMTQTPASVEAAVGGTVTINCQASQNIYSNLAWYQQKPGQRPKLLIYKASTLASGVSSRFKGSGSGTEFTLTISDLASADAATYYCQSYYGATSSSFGYGFGGGTEVVVKR"
quantity_name = "pKd"
result_value = 9.85

[[record]]
binder = "23D1 (antibody, human IgG1, kappa, V domains shown, Rabbit-human chimeric anti-CD38: rabbit VH and VL on human IgG1 and kappa constant regions) VH: QELVESGGGLFQPGGSLALTCKASGFSLSNIYVMCWVRQAPGKGLEWIACIGTGSGDTDYATWAKGRFTISKTSSTTVTLQMTSLTAADTATYFCARDPGAGTWNLWGPGTLVTVSS VL: DIVMTQTPSSVEAAVGGTVTIKCQASQTIGSRLAWYQQKPGQPPKLLIYSASTLASGVSSRFKGSGSGTQFTLTISDLDSADAATYYCQSYYYTSTSYPNAFGGGTEVVVKR"
quantity_name = "pKd"
result_value = 9.26

[[record]]
binder = "22H6 (antibody, human IgG1, kappa, V domains shown, Rabbit-human chimeric anti-CD38: rabbit VH and VL on human IgG1 and kappa constant regions) VH: QSVEESGGRLVTPGTPLTLTCTVSGFSLSNNAISWVRQAPGKGLQWIGSIYGSGNTYYATWAKGRFTVSKTSTTVDLKINSPTTEDTATYFCAREGAGSSWGFNLWGPGTLVTVSS VL: AQVLTQTASSVSAAVGGTVTISCQSSESVYKNNYLSWYQQKPGQPLKCLIYSASTLASGVPSRFKGSGSGTQFTLTISDLESDDAATYYCAGGYSGNINGFGGGTEVVVKR"
quantity_name = "pKd"
result_value = 7.20

[[record]]
binder = "21H9 (antibody, human IgG1, kappa, V domains shown, Rabbit-human chimeric anti-CD38: rabbit VH and VL on human IgG1 and kappa constant regions) VH: QSLEESGGDLVKPGASLTLTCTASGFSATTYYYYMCWVRQAPGKGLEWIACTYTGDGATYYATWAKGRFTISKTSSTTVTLQMTSLTAADTATYFCARSADNSIYYGYFNLWGPGTLVTVSS VL: AFELTQTPFSVSEPVGGTVTINCQASENIYSSLAWYQQKPGQPPKLLIYRASTLASGVPSRFSGSGSGTEFTLTISGVQSDDAATYYCQTYYGSTSTGFTFGGGTEVVVKR"
quantity_name = "pKd"
result_value = 9.12

